The following sequences are shown together with reported soluble fraction (log2) values.
experiment_notes: soluble fraction after stress (log2 fold change); higher = more stays soluble; pooled small domains, quantitative proteomics;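 further: 20 min heating vs room temperature control held 20 min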
setup_conditions: stress: 75 degC
// return just the number, without any unit appended

Example sequences with recorded soluble fraction (log2):
{"construct_sequence": "HMTPTRQATVSVAALNVREQPSLQGRRLGKLTQGTTLTVVGPPGEWLKIEYKGETGFVYASYTSLG", "soluble fraction (log2)": -2.01}
{"construct_sequence": "HMTISAQAITPRLEVIKNFVLMEEWDAAQTQLEKLRSFTEIWSLDPLFSAMKKKDGQKISDWITGFIKDNM", "soluble fraction (log2)": -2.39}
{"construct_sequence": "HMHVYSYPAAVKIKNAVGREMMVTLLGRSGTHVQFARQDGEEFVYPISSLDLAAQTLISKYPNDGIKN", "soluble fraction (log2)": -0.895}
{"construct_sequence": "HMAPDGIEDKEGWLKVLPMITNLSIQMQNLQARGMDYEHIRNLLHETLLRYDDRIDSNLFIPNV", "soluble fraction (log2)": -0.059}
{"construct_sequence": "HMSVLDEVRKLSFHQRNAVFLFYFEGYSMKEIAQIFHVKEGTVSSWLTRARKQLRKQMEEEVLYDESLP", "soluble fraction (log2)": -0.473}
{"construct_sequence": "HMPVYEEEVPAALDGQRLDRVVAMVTGLSRSEVGALLAAGAVTVDGTTPAKGSVRLAAGSIVSVTVS", "soluble fraction (log2)": -0.357}

stdin: Could you tell me which soluble fraction (log2) is on file for HMDDIVFPNPTKNQINVSIDGLKNIYNLSGKLLISTNDKIIDVSILKAGVYFINTNEQFYKFVK ?
stdout: -1.41

stdin: And HMEPDEIVLDHRKRIENSDAIVLIAPIWNFRMPAILEGWIDKVLAPPWAFKFKKLFGNYGYPVGNLKG ?
stdout: 0.0917
